The measurements presented in this section are drawn from ChEMBL document CHEMBL1137002.

# key: entry, value: selectivity ratio
Experiment: Therapeutic index, ratio of IC50 for human HeLa cells to EC50 for Giardia lamblia trophozoites isolates
Format: cell-based
Conditions: read-out: Ratio IC50/EC50

Examples from the recorded data:
Cn1c([N+](=O)[O-])cnc1/C=C/c1cccc(F)c1    > 2460
CCOC(OCC)c1ccc(/C=C/c2ncc([N+](=O)[O-])n2C)cc1    1860
Cn1c([N+](=O)[O-])cnc1/C=C/c1cccc(Br)c1    1860
CC(=O)OC(c1ccc(C)cc1)C(OC(C)=O)c1ncc([N+](=O)[O-])n1C (stereo unspecified)    > 319

Lab book: selectivity ratio of Cn1c([N+](=O)[O-])cnc1/C=C/c1ccc2ccccc2c1 noted as 1620

Lab book: selectivity ratio of Cn1c([N+](=O)[O-])cnc1CCc1ccc(Br)cc1 noted as 85

Lab book: selectivity ratio of COc1cccc(/C=C/c2ncc([N+](=O)[O-])n2C)c1 noted as > 646

Lab book: selectivity ratio of Cn1c([N+](=O)[O-])cnc1/C=C/c1ccc(OC(F)(F)F)cc1 noted as 112
